biological target: CYorf15A; assay: pooled miR-30 sensor sort-seq; sequence = guide strand; details: shRNA; further: reference of the scale not given here
RECORDED ENDPOINT: sensor-assay potency score (higher = more potent)
# output: bare number, no unit

Examples with answers:
TAAAGCTTGCTGACCAGACGGA    0.11
TTGGAGTTGATTATTAACTAAA    -1.56
ATTTACAACATGGAGTTGCTGC    -0.262
TATCTTTTCCATTATTTGCTTT    -0.915
TACAACATGGAGTTGCTGCTTT    0.408

So what's the measured sensor-assay potency score (higher = more potent) for this one? TCTGCTTTCTCTCTTAACCCAC
-0.243

Also TTGCATTGTAAAGCTTGCTGAC , if possible.
-0.311

Would you kindly repeat that for TTCTTTGTTATAAAGTCACGGC ?
-0.192

----------
target: DUSP3; experiment: pooled miR-30 sensor sort-seq; sequence = guide strand; conditions: shRNA
RECORDED ENDPOINT: sensor-assay potency score (higher = more potent)
Give the figure by itself; no unit, no explanation.

TTCAGCACATGGGTGATGCCTA    -0.601

Now let's try a different one.
Look up sensor-assay potency score (higher = more potent): TGAGGTTGAACTCCTGTGTGTC
0.0433

----------
target: ZNF100; assay: pooled miR-30 sensor sort-seq; sequence = guide strand; conditions: shRNA
RECORDED ENDPOINT: sensor-assay potency score (higher = more potent)
Output spec: single numeric token, no unit.

TAATTTGTTATCATGTTCTTTG    -0.537
TTTGTTATCATGTTCTTTGTGC    0.633
TTAGTGAGGGCTGAGGACCAGT    -0.895

Sample TTCAAAATAAGACTGCACCAGA — what was its sensor-assay potency score (higher = more potent)?
0.0757

Would you kindly repeat that for TTGAATTTGAAAATGTATGAAA ?
-0.873

Then TATTTGTACAATATTTCTCAAG ?
-1.35

----------
target: FOXN4; test: pooled miR-30 sensor sort-seq; sequence = guide strand; conditions: shRNA
RECORDED ENDPOINT: sensor-assay potency score (higher = more potent)
Answer as a number with no unit attached.

Past entries and their recorded results:
TGAAGCTGTAGATCTCGCTCAC    0.304
ATTCCTGACATTATGGATGAGG    -0.583

Now look at this entry.
Quick check: sensor-assay potency score (higher = more potent) of TTGCCATCTGCTGCAGCCGAGG ?
-1.85

----------
Here, each record is paired with measured sensor-assay potency score (higher = more potent) data.
molecular target: KDELR1; experiment: pooled miR-30 sensor sort-seq; sequence = guide strand; settings: shRNA
Could you respond with only the numeric value?

TTGAGCAGTAGCAAGATGATGG    -0.401
TAGAGTGAGATGTAGTTGGTGA    0.498
TAAGTAGCTTTGAACTTGCTAT    -0.0372
TTTGGTGATATAGAGGTAGAAG    -0.962

Fill blank: measured sensor-assay potency score (higher = more potent) of the sequence TTGAAGAGATAGAGCGTGCGGT is ____.
-0.25

----------
Reported values of sensor-assay potency score (higher = more potent) for individual entries
molecular target: YY2; assay: pooled miR-30 sensor sort-seq; sequence = guide strand; details: shRNA
Keep the answer to the number alone.

Sample answers from the record:
TCAAGTACTCGGAATAATCAGG    -0.787
TAGGGGACCACATAGTCACGGA    -0.62
TTCTGCTCCCACTTCCTCGTGC    0.239
TACTGGACGCTTTCCGTCGGAA    -1.27
TCGTCTTCAATGCTATCCGGGA    -0.643
TTGACTGAGCGAACTTCCTGTT    -0.213

Given TTGAGCTCTCAAGAAAAGCTTT , state its recorded sensor-assay potency score (higher = more potent).
-0.69

----------
target: GKN2; assay: pooled miR-30 sensor sort-seq; sequence = guide strand; conditions: shRNA
RECORDED ENDPOINT: sensor-assay potency score (higher = more potent)
The response must contain the number and no unit.

Give sensor-assay potency score (higher = more potent) (GKN2) of the following sequence: TGGTAGAAGAGCATGATCCTGC
-0.134

Repeat with TTATAGTCAAAAATTGTGGTAG
0.587

Repeat for the following sequence: TTAATTTGACTTTTGAGTGTAA
0.33

Here is the next sequence: TTTATAGTCAAAAATTGTGGTA
-0.623

Subsequent entry: TGACTTTTGAGTGTAAACCAAG
-1.39

----------
target: LMO4; assay: pooled miR-30 sensor sort-seq; sequence = guide strand; conditions: shRNA
Criterion: sensor-assay potency score (higher = more potent) meeting or surpassing -0.5. Met: class 1. Not met: class 0.

TAGTGAAACCGATCTCCCGGGA    class 0

Entry TTGGTGTAACAGGACGTGCCGA : is its sensor-assay potency score (higher = more potent) no less than -0.5?
class 0

Proceed to TAGTGGATTGCTCTGAAGTGAA
class 0

Param item: TCACTCGCAGGAATCGACTGTC
class 1

----------
Form field: sensor-assay potency score (higher = more potent) (one value per entry).
biological target: RYR2; assay: pooled miR-30 sensor sort-seq; sequence = guide strand; details: shRNA

These solved cases illustrate the format of a correct answer.
TTCAGTGTGAACATCATGGTGT    0.656
TAAGTTGTAATTGCGCTCCTGT    0.62
TTCATTATTATCCATCACCGAA    -1.08

Given the entry TTTTGTACTCGGTTCCACCTGA , report its measured sensor-assay potency score (higher = more potent).
0.606

Next record, please: TAGTACATAGTGAACTGCGATG
-0.997

For TATTCGAGACACATCTACCTTC then?
0.298

Repeat with TTTAGTAGCTTCTTTGTCTTTG
0.401

----------
target: TNFAIP2; assay: pooled miR-30 sensor sort-seq; sequence = guide strand; details: shRNA
Listed next: entries and their corresponding sensor-assay potency score (higher = more potent).
// return just the number, without any unit appended

Field: example entries. Status: answers known.
TCAACATACATACAAAAGCAGT    -1.49
TAGCTCCAGAGCTCGGTCCATC    -1.52

Form field: reported sensor-assay potency score (higher = more potent) of TATCGTTTACAAAGAGTCCTTG
-0.0149

How about TTCTGCTCCATGGACATCCGGA ?
-0.115

Same again, this time with TTTCTCTTCCAGTTCTGTCTTC
-0.182

----------
target: LANCL2; test: pooled miR-30 sensor sort-seq; sequence = guide strand; conditions: shRNA
RECORDED ENDPOINT: sensor-assay potency score (higher = more potent)
Number only, no unit.

TTTCTTGGTCCACTTTTGCTGC    -1.18
TTTTGTGACACATTCCTGGGAC    0.967

Consider the sequence shown here: TTTAATTTTGGTCTGGATCCGT What is its recorded sensor-assay potency score (higher = more potent)?
0.159

And the next one, AATAATAGCATTGACTACCTCT ?
0.441

Another: TTTCTGTCAAGGTTTCTTGGTC
-0.185

How about TTAACATATAGTAAATTCCAGC ?
-0.758

----------
Reported sensor-assay potency score (higher = more potent) values for a set of sequences
biological target: EGFLAM; assay: pooled miR-30 sensor sort-seq; sequence = guide strand; conditions: shRNA
The reply should be a number, written without any unit.

// returns reported sensor-assay potency score (higher = more potent) for input TAGTCATTGACACAGAAGCTGT
-1.47

// query: TAAGCTGCTATGCTCACACGAT
-0.515

Now try TTGAGGTCCACTTCTTGTCGAA .
-0.198

What do we get for TTCTTGTCGAAATCTGGCCTGA ?
-0.665

Further, for ACACATTTGATCTTGATCCTGA ?
0.527

Then TTAGATATAGACATCTTCTTGC ?
0.604

----------
biological target: KAAG1; test: pooled miR-30 sensor sort-seq; sequence = guide strand; details: shRNA
Give Yes when the value for sensor-assay potency score (higher = more potent) is at least -0.6. Give No when it is less.

Before answering, review these 5 worked examples.
TCGTTTCAGGAGGCGATCCCGC    No
TCAGCCCGTCGTGAAGAGCGTG    No
TTTCTCGTTCGTTTCAGGAGGC    Yes
TTCGTCAGTTTCTCGTTCGTTT    Yes
TCTCGTTCGTTTCAGGAGGCGA    No

# input for lookup
Please indicate if the recorded sensor-assay potency score (higher = more potent) for TTTCAGGAGGCGATCCCGCGCC meets or exceeds -0.6.
No

----------
biological target: NODAL; assay: pooled miR-30 sensor sort-seq; sequence = guide strand; details: shRNA
Threshold check on sensor-assay potency score (higher = more potent): at or above -0.8 gives TRUE, strictly below gives FALSE.

Known results for sequences:
TTGGAGAATACATGAAAGCTAT    TRUE
TTTCAGCAGACTCTGGATGTAT    TRUE
TGATCTAGGAGCACTCTGCCAT    TRUE
TGGTGATCTAGGAGCACTCTGC    FALSE
TTTATGGTGATCTAGGAGCACT    FALSE

Dear colleague, could you confirm whether TTCAGTAAAGAGAACATCCAGC has sensor-assay potency score (higher = more potent) at or above -0.8?
TRUE
